STUDY SYSTEM: 5-hydroxytryptamine receptor 4 (Rattus norvegicus)
Sequence (Q62758 whole entry): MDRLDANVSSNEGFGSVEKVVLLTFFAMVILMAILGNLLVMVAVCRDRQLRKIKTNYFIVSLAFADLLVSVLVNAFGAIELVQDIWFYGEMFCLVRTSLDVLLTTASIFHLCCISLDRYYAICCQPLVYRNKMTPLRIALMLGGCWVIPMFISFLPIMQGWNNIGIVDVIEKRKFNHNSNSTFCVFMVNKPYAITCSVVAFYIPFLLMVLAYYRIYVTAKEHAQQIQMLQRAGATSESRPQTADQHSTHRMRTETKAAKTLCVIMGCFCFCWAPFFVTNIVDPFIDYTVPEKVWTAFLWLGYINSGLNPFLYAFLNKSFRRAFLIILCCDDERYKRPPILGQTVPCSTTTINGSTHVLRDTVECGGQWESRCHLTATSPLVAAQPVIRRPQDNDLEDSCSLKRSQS
PROCEDURE TEXT: 5-hydroxytryptamine 4 receptor agonist activity was determined by the relaxation of the carbachol-contracted rat esophageal tunica muscularis mucosae
Assay type: functional
MEASURED ATTRIBUTE: IC50 (nM)
Quick note: give the figure in nM, leave out the unit.

Request: State its IC50 on 5-hydroxytryptamine receptor 4 (Rattus norvegicus): `COc1cc(N)c(Cl)cc1C(=O)OCCN1CCCCC1`
Response: 2.4

----------
STUDY SYSTEM: 5-hydroxytryptamine receptor 4 (Cavia porcellus)
Sequence (O70528 whole entry): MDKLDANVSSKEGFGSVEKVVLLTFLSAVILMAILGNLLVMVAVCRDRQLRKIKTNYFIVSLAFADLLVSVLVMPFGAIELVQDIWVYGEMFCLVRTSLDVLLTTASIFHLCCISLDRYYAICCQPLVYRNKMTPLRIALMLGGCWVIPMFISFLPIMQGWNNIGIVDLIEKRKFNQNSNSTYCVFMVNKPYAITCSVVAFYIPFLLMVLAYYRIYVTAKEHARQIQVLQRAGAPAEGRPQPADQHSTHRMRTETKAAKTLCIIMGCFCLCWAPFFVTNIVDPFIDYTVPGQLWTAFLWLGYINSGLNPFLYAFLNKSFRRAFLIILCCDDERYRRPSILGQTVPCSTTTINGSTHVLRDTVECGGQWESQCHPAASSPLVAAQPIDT
PROCEDURE TEXT: 5-hydroxytryptamine 4 receptor agonist activity as increased response to electrical stimulation in guinea pig ileum
pEC50: −log10 of the molar value.
Respond with class 1 for pEC50 values of 7 and above, class 0 for values below.

Request: Has `CCN1CCC(OC(=O)c2cc(Cl)c(N)cc2OC)CC1` a recorded pEC50 greater than or equal to 7?
Response: class 1

Request: Has `CCN(CC)CCOC(=O)c1cc(Cl)c(N)cc1OC` a recorded pEC50 greater than or equal to 7?
Response: class 0

Request: Has CCN1CCCC(OC(=O)c2cc(Cl)c(N)cc2OC)C1 (stereo unspecified) a recorded pEC50 greater than or equal to 7?
Response: class 1

Request: Has COc1cc(N)c(Cl)cc1C(=O)OC1CC2CCC(C1)N2C (stereo unspecified) a recorded pEC50 greater than or equal to 7?
Response: class 1

Request: Has COc1cc(N)c(Cl)cc1C(=O)NC1CN2CCC1CC2 (stereo unspecified) [ZACOPRIDE] a recorded pEC50 greater than or equal to 7?
Response: class 0
